tested on: Cynomolgus monkey; experiment: Drug retention time in cynomolgus monkey treated with 30 mg/kg, po of [14C]lenvatinib administered on day 1, 2 and 4 by radio-LC/MS analysis; assay type: ADME, organism-based, Macaca fascicularis; parameters: dose 30 mg/kg, route oral; details: in vivo
The entries below come with measured Retention_time values attached.
Response body: numeric value in min, unit text excluded.

// known answers, use as guide
- compound: "COc1cc2nccc(N[C@@H](CS)C(=O)O)c2cc1C(N)=O"
  target_system: "Cynomolgus monkey"
  Retention_time (min): 14.5
- compound: "COc1cc2nccc(SCC(=O)O)c2cc1C(N)=O"
  target_system: "Cynomolgus monkey"
  Retention_time (min): 12.2
- compound: "COc1cc2nccc(SC[C@H](NC(=O)CC[C@H](N)C(=O)O)C(=O)NCC(=O)O)c2cc1C(N)=O"
  target_system: "Cynomolgus monkey"
  Retention_time (min): 13.1
- compound: "COc1cc2nccc(N[C@@H](CSSC[C@H](Nc3ccnc4cc(OC)c(C(N)=O)cc34)C(=O)NCC(=O)O)C(=O)O)c2cc1C(N)=O"
  target_system: "Cynomolgus monkey"
  Retention_time (min): 14.1
- compound: "COc1cc2nccc(N[C@@H](CSSC[C@H](Nc3ccnc4cc(OC)c(C(N)=O)cc34)C(=O)O)C(=O)O)c2cc1C(N)=O"
  target_system: "Cynomolgus monkey"
  Retention_time (min): 13.5

Fill in the recorded Retention_time for this compound, with Cynomolgus monkey as test system: `COc1cc2nccc(N[C@@H](CSc3ccnc4cc(OC)c(C(N)=O)cc34)C(=O)O)c2cc1C(N)=O` 17.1

I'm curious: which Retention_time was measured for COc1cc2nccc(Oc3ccc(NC(=O)NC4CC4)c(Cl)c3)c2cc1C(N)=O.CS(=O)(=O)O [LENVATINIB MESYLATE] tested on Cynomolgus monkey? 46.4

----------
assay: Drug excretion in cynomolgus monkey feces assessed as unchanged level of drug at 30 mg/kg, po administered on day 1, 2 and 4 by radio-LC/MS analysis; type: ADME, organism-based, Macaca fascicularis; parameters: dose 30 mg/kg, route oral; settings: read-out: Drug excretion
measured_endpoint: dose excreted (%)
Field format: number, assumed %, no unit text.

If you can, please state the reported dose excreted value of `COc1cc2n[14cH]cc(Oc3ccc(NC(=O)NC4CC4)c(Cl)c3)c2cc1C(N)=O.CS(=O)(=O)O` . 51
